From: paper PMC12136788

The entries below come with measured binding signal values attached.
Molecular target: T1, UNK ZnF1-3 (human, UniProt Q9C0B0 31-174)
T1 sequence: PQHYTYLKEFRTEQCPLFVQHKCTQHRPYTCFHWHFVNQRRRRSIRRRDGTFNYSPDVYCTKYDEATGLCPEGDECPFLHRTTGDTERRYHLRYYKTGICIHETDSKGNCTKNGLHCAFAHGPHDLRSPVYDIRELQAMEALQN
Assay: nsRBNS (natural sequence RNA bind-n-seq); RBNS binding buffer (assumed for nsRBNS): 25 mM Tris pH 7.5, 150 mM KCl, 3 mM MgCl2, 0.01% Triton X-100, 500 ug/ml BSA, 20 U/ml SUPERase-In, 4 C; UNK is unkempt and MSI1 is Musashi-1; names of the RNAs are library labels; protein concentration not given here; high values mean tight binding
Whole data set: some 24,000 sequences, median “enrichment r” near 0.99, cut for the highest 2% near 3.7. Shown is part of a subset that was picked to be rich in the highest values.
Express your answer in enrichment R, writing the number without its unit.

Solved cases (2 shown):
chr2:42509997:42509998:+_ENSG00000143924_ENST00000318522|hu_mus|hu_hu_hu_mus_True|28_48 (ssRNA) RNA: GGGAGUUCUACAGUCCGACGAUCUCGCUGAGUCCUCUCCUCAUAAUUAAACAGGACUACCACUGAGGCGAUAAAAUAAACUAUCUCCCCGGUCGGAAGCAGGUAUACAUUAGCUCUACAGUCCUUUCCUCGAUAACCGUAUACCAACAGAGGAUUGAGCAUCA | 1.03
chrX:106345308:106345309:+_ENSMUSG00000031246_ENSMUST00000033598|mus_mus|motif|central (ssRNA) RNA: GGGAGUUCUACAGUCCGACGAUCUUCUCUCAUCCACUUCCGAUUCUCUUCAUUAGCUGCAAUAUCUUUUUCUUCAAAUCCGGUUUUGUUGGCUUCUAAGAAACAAAGCACAUCUUGCUGUUUCUUCUUAAUCGCCGUAGAGCCCAACAGAGGAUUGAGCAUCA | 0.538

Now take the following binder into account.
For the binder 35238635_35241177_7885_CDS_ENSMUSG00000029104_ENSMUST00000080036|mouse|control|control (ssRNA) RNA: GGGAGUUCUACAGUCCGACGAUCCUGGCCCAGCUUGUAGCUCAUGUUGCCUGGCUCCCGCUCUGGGUUGAUCUGCAGCAGCAGCUUGUCAUGGCUGAUAAGAGCACCUGUAGUAGCUGGUAACAGAGAAGGGACAGGAUCCCACAACAGAGGAUUGAGCAUCA , give its measured binding signal value.
1.21
